Numbers sourced from patent US5552441A.

- testTarget: leukotriene B4 specific receptor on the membrane of human neutrophils (Homo sapiens)
- Sequence (Q15722 whole entry): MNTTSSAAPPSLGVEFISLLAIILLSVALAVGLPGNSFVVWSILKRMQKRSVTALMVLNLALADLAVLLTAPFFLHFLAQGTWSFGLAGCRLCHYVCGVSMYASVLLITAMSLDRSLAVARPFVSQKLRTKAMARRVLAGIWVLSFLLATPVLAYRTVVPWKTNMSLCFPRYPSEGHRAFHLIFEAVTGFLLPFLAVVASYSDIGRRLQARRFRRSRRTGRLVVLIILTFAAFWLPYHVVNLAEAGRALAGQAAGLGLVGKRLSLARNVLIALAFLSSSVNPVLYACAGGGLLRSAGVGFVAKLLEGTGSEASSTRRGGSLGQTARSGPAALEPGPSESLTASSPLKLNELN
- protocol: biochemical
- measurementContext: 0.1-0.2 nM ^3 H-LTB4, 10 minutes at 4° C., read-out: Inhibition of [^3 H]LTB4 Binding to Human Neutrophils IC50
Where a name gives a salt, the structure may show the parent alone.
parameterMeasured: IC50 (nM)
Express your answer in nM, writing the number without its unit.

Solved cases below.
INSERT INTO measurements (molecule, parametermeasured, resultvalue) VALUES
  ('CCc1cc(C(C)=O)c(O)cc1OCCCOc1ccc2ccc(OCC(=O)O)cc2c1 [Example 16, sodium salt hydrate]', 'IC50', 409),
  ('CCCc1c(OCCCOc2cc(O)c(C(C)=O)cc2CC)cccc1Oc1ccccc1C(=O)O [Example 19, disodium salt hydrate]', 'IC50', 24),
  ('CCc1cc(C(C)=O)c(O)cc1OCCCOc1cccc(Oc2cccc(C(=O)O)c2)c1 [Example 14, disodium salt hemihydrate]', 'IC50', 456),
  ('CCCc1c(OCCCCOc2cc(O)c(C(C)=O)cc2CC)cccc1Oc1ccccc1C(=O)O [Example 18, disodium salt]', 'IC50', 94),
  ('CCc1cc(C(C)=O)c(O)cc1OCCCOc1cccc(Oc2ccccc2C(=O)O)c1 [Example 13, disodium salt hemihydrate]', 'IC50', 291),
  ('CCCc1c(OCCCOc2cc(O)c(C(C)=O)cc2CC)cccc1OC(C)C(=O)O (stereo not drawn)', 'IC50', 23);

Prompt: Would you kindly share the measured IC50 for CCc1cc(C(C)=O)c(O)cc1OCCCOc1ccc2c(=O)c3cc(C(=O)O)ccc3oc2c1 [Example 7, disodium salt sesquihydrate] ?
Completion: 190

Prompt: GET /values?readout=IC50&item= CCCc1c(OCCCOc2cc(O)c(C(C)=O)cc2CC)c(I)cc2c1OC(C(=O)O)CC2 (stereo not drawn)
Completion: 327

Prompt: # IC50 lookup, item CCCc1cc(Oc2cccc(C(=O)O)c2)ccc1OCCCOc1cc(O)c(C(C)=O)cc1CC [Example 9, disodium salt]
Completion: 158

###

- testTarget: [^3 H]-LTB4 binding to guinea pig lung membranes (Cavia porcellus, UniProt H0VYV8)
- Sequence (H0VYV8 1-348): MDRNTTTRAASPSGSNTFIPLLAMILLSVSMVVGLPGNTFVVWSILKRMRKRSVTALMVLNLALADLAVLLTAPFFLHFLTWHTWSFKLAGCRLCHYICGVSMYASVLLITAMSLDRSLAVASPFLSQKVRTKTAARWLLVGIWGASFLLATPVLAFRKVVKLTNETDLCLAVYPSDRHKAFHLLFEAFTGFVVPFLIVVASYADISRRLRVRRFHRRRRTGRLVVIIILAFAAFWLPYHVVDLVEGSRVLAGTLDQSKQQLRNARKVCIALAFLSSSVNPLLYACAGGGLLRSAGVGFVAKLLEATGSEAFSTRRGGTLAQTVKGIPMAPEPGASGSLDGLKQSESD
- protocol: Inhibition of [^3 H]LTB4 Binding to Guinea Pig Lung Membranes
- measurementContext: approximately 140 pM [^3 H]-LTB4, 45 minutes at 30° C., pH 6.5, mean -log Ki, read-out: Inhibition of [^3 H]LTB4 Binding to Guinea Pig Lung Membranes pKi (converted)
Structures can show the parent of a compound that is named as a salt.
parameterMeasured: Ki (nM)
State just the number; it will be interpreted in nM.

Worked examples, 3 compounds total:
INSERT INTO results (compound, unittext, resultvalue) VALUES
  ('CCCc1c(OCCCOc2cc(O)c(C(C)=O)cc2CC)cccc1Oc1ccccc1C(=O)O [Example 19, disodium salt hydrate]', 'nM', 34.7),
  ('CCCc1c(OCCCOc2cc(O)c(C(C)=O)cc2CC)c(I)cc2c1OC(C(=O)O)CC2 (stereo not shown) [Example 6]', 'nM', 25.7),
  ('CCCc1cc(Oc2cccc(C(=O)O)c2)ccc1OCCCOc1cc(O)c(C(C)=O)cc1CC [Example 9, disodium salt]', 'nM', 257);

Read the next record carefully.
Prompt: // fetch [^3 H]-LTB4 binding to guinea pig lung membranes (Cavia porcellus, UniProt H0VYV8) Ki for CCCc1c(OCCCOc2cc(O)c(C(C)=O)cc2CC)cccc1OCC(=O)O [Example 3]
Completion: 4.79
